Test system: SK-OV-3
EXPERIMENT_DESCRIPTION: NCI tumour cell line growth inhibition, 48 h
Activity calls are given as the source filed them. No stated cut-off is given here; in the data, active = GI50 up to about 1.1 µM and inactive = higher.
Outcomes: active, inactive

molecule="CN(C)C(=O)C(F)(F)C(c1ccc(C(F)(F)F)cc1)C1C(=O)N(C)C(=O)N(C)C1=O (centres undefined)" assay_target=SK-OV-3 class_name=inactive
molecule="Cc1ccc(C(CC(=O)C(C)(C)CN2CCCCC2)SCCS(=O)(=O)O)cc1 (centres undefined)" assay_target=SK-OV-3 class_name=inactive
molecule="O=C1C=C[C@@]23CC1C(O)C[C@H]2C=Cc1ccccc13 (some centres undefined)" assay_target=SK-OV-3 class_name=inactive
molecule=COc1ccc([C@@H]2CC(=O)NCCCNCCCCNCCCN2)cc1 assay_target=SK-OV-3 class_name=inactive
molecule=Oc1[nH]c(Nc2ccc(Cl)c(C(F)(F)F)c2)nc2ncnc1-2 assay_target=SK-OV-3 class_name=inactive
molecule=C1=CN2C[n+]3cccc(OCc4ccccc4)c3N=C2C(OCc2ccccc2)=C1 assay_target=SK-OV-3 class_name=inactive
molecule=COc1ccccc1/C=C1\NC(=S)N(/C=C2\C(=O)Oc3ccccc3C2=O)C1=O assay_target=SK-OV-3 class_name=inactive
molecule="C=CCC(C(=O)Nc1cccc2nc[nH]c12)C(=O)OCC (centres undefined)" assay_target=SK-OV-3 class_name=inactive
molecule=O=c1[nH]c2nc3ccccc3c(=O)n2/c1=C/c1ccc(O)cc1 assay_target=SK-OV-3 class_name=inactive
molecule=Clc1ccc(Cn2cc(/C=N/n3cnnc3)c3ccccc32)cc1 assay_target=SK-OV-3 class_name=inactive
molecule=O=c1[nH]c2cc([N+](=O)[O-])c(N(CCO)CCO)c([N+](=O)[O-])c2[nH]1 assay_target=SK-OV-3 class_name=inactive
molecule="CC(=O)SSC1(Cl)C(C)(C)C(Cl)(SSC(C)=O)C1(C)C (centres undefined)" assay_target=SK-OV-3 class_name=inactive
molecule="NC(=O)C12CCC1C1CCCCC12N1CCOCC1 (centres undefined)" assay_target=SK-OV-3 class_name=inactive
molecule="CC(=O)O[C@H]1C(=O)[C@@]2(C)[C@H]([C@H](OC(=O)c3ccccc3)[C@]3(O)C[C@H](OC(=O)[C@H](O)[C@@H](NC(=O)CC(C)(C)C)c4ccccc4)C(C)=C1C3(C)C)C1(OC(C)=O)CO[C@@H]1C[C@@H]2O (some centres undefined)" assay_target=SK-OV-3 class_name=active
molecule="CCCCCCCCCCCCCC(=O)N(CCCCCCCCC)CC(O)C(O)C(OC1OC(CO)C(O)C(O)C1O)C(O)CO (centres undefined)" assay_target=SK-OV-3 class_name=inactive
molecule=Cc1cc2ccc(N)nc2nc1O assay_target=SK-OV-3 class_name=inactive
molecule=COc1ccc(N2C(=O)/C(=C/c3ccc(N(CCC#N)CCC#N)cc3)N=C2c2ccccc2)cc1 assay_target=SK-OV-3 class_name=inactive
molecule="Cc1cn2c(=O)c3ncn(C4OC(CO)C(O)C4O)c3n(C)c2n1 (centres undefined)" assay_target=SK-OV-3 class_name=inactive
molecule=CC(=O)NC1=C(NCCN(C)C)C(=O)c2ccccc2C1=O assay_target=SK-OV-3 class_name=inactive
molecule=C=CC(OCC)(OCC)OCC assay_target=SK-OV-3 class_name=inactive
molecule=O=[N+]([O-])c1ccccc1S(=O)(=O)c1cc(Cl)cc2c1NCCC2 assay_target=SK-OV-3 class_name=inactive
molecule=CCOC(=O)Cn1nc2ccc(Nc3c(C)[n+]([O-])c4cc(F)c(OCC)cc4[n+]3[O-])cc2n1 assay_target=SK-OV-3 class_name=inactive
molecule="CC1=CCC(O)C=CC(C)C(O)C(C)C=C(C)C(=O)c2c(O)c(C)cc3c2C(=O)C(N)=C(NC(=O)/C=C\\C=C/C=CC(C)C(O)CC1=O)C3=O (centres undefined)" assay_target=SK-OV-3 class_name=inactive
molecule="O=C(c1ccccc1)N1CCN2CCN=C(c3ccccc3)C21c1ccccc1 (centres undefined)" assay_target=SK-OV-3 class_name=inactive
molecule="CC(C)(CN1CCCCC1)C(=O)CC(SCCN)c1ccc(Cl)cc1 (centres undefined)" assay_target=SK-OV-3 class_name=inactive
molecule=COc1ccc(-c2cc(-c3ccc(Nc4ccnc5cc(C(F)(F)F)ccc45)cc3)nc(N)c2C#N)cc1 assay_target=SK-OV-3 class_name=inactive
molecule=COC(=O)c1cc2ccc(OC(C)=O)c(OC(C)=O)c2cn1 assay_target=SK-OV-3 class_name=inactive
molecule="O=CN(CCN1CCCC1)C1CCc2cc(Cl)c(Cl)cc2C1 (centres undefined)" assay_target=SK-OV-3 class_name=active
molecule=CC(=O)OC[C@@H](OC(C)=O)[C@@H](OC(C)=O)[C@H]1OC[C@@H]2C[C@H]([C@H]1OC(C)=O)N(Cc1ccccc1)O2 assay_target=SK-OV-3 class_name=inactive
molecule="COC(=O)C(=O)C(C(=O)C=C(C)C)C(=O)C(=O)Nc1cc(C(F)(F)F)ccc1Cl (centres undefined)" assay_target=SK-OV-3 class_name=inactive
molecule=Cc1ccc(/N=N/c2c(-c3ccccc3)nn(C(=O)CC(=O)Nc3ccc(Cl)cc3)c2-c2ccccc2)cc1 assay_target=SK-OV-3 class_name=inactive
molecule=CCOC(OCC)[C@H](N)[C@@H](O)[C@@H](O)[C@H]1COC(C)(C)O1 assay_target=SK-OV-3 class_name=inactive
molecule="O=C(O)c1ccc(C2C3C=CC(C3)C2[N+](=O)[O-])cc1 (centres undefined)" assay_target=SK-OV-3 class_name=inactive
molecule=N=C(N)NS(=O)(=O)c1ccc(NC(=O)c2ccc(Cl)c3c(Nc4ccc(S(=O)(=O)N=C(N)N)cc4)c4ccccc4nc23)cc1 assay_target=SK-OV-3 class_name=inactive
molecule="CC(=O)OC1CC2C(C)(C)OC(=O)CC(OC(C)=O)[C@]2(C)C2CCC3(C)C(=CCC3[C@H]3COC(=O)C3)[C@]12C (some centres undefined)" assay_target=SK-OV-3 class_name=inactive
molecule=CCOC(=O)c1nc2ccc(C(F)(F)F)cc2nc1Oc1ccc(C#N)cc1 assay_target=SK-OV-3 class_name=inactive
molecule=N#Cc1nc(COCc2ccccc2)oc1N assay_target=SK-OV-3 class_name=inactive
molecule=SCCCSCCSCCCSCCS assay_target=SK-OV-3 class_name=inactive
molecule=CC1=CC(=O)/C(=C/NC(=O)NN)C(=O)O1 assay_target=SK-OV-3 class_name=inactive

* * *

Tested on: RPMI-8226
EXPERIMENT_DESCRIPTION: NCI tumour cell line growth inhibition, 48 h
Activity calls are given as the source filed them. No stated cut-off is given here; in the data, active = GI50 up to about 1.1 µM and inactive = higher.
ENDPOINT_NAME: GI50

compound="CCN(CC)[C@@H]1c2cc3c(cc2C(c2cc(OC)c(O)c(OC)c2)C2C(=O)CO[C@@H]21)OCO3 (stereo not given in full)" experimental_value="> 100 µM (inactive)"
compound=NS(=O)(=O)c1ccc(NC(=S)N/C=C2\C(=O)Nc3ccccc3C2=O)cc1 experimental_value="> 100 µM (inactive)"
compound="COc1ccc(N2C(=O)C3ON(C(C(N)=O)c4ccccc4)C(c4ccc(-c5ccccc5)cc4)C3C2=O)cc1 (stereo not given)" experimental_value="16.8 µM (inactive)"
compound=CC[N+](CC)(CCNCC(N)=O)CC(N)=O experimental_value="> 10 µM (inactive)"
compound="COc1ccc(C2c3c[nH]nc3CC3CCCCC32)cc1 (stereo not given)" experimental_value="19.8 µM (inactive)"
compound="O=C(O)CC1NCc2cc3ccccc3nc21 (stereo not given)" experimental_value="> 100 µM (inactive)"
compound=COc1ccc(/N=C(/SS/C(=N/c2ccc(OC)cc2)c2ccc([N+](=O)[O-])o2)c2ccc([N+](=O)[O-])o2)cc1 experimental_value="0.489 µM (active)"
compound=Cc1nc(-c2cccnc2)sc1C(=O)/C=C/c1ccc(Cl)cc1Cl experimental_value="31.5 µM (inactive)"
compound="NC1C/C(=N\\O)c2c(Cl)sc(Cl)c21 (stereo not given)" experimental_value="10.2 µM (inactive)"
compound=O=C1Nc2ccc(S(=O)(=O)N(CCO)CCO)cc2/C1=C1/Nc2ccccc2C1=O experimental_value="> 100 µM (inactive)"

* * *

Test system: RPMI-8226
EXPERIMENT_DESCRIPTION: NCI tumour cell line growth inhibition, 48 h
The source made the active and inactive calls. Rule as the data show it: active = GI50 up to about 1.1 µM and inactive = higher.
Possible outcomes: 1 (yes) = active, 0 (no) = inactive

molecule=N#C/C(C(=O)Nc1ccccc1)=C(/N)N1CCOCC1 class_name="0 (no)"
molecule=CC(=O)c1cccc(NC(=O)C(=O)Nn2c(N)nnc2N)c1 class_name="0 (no)"
molecule=N#Cc1nc(COCc2ccccc2)oc1N class_name="0 (no)"
molecule=CC(C)(/C=N/O)/[N+]([O-])=C/c1ccccc1 class_name="0 (no)"
molecule=COc1cc(NC(C)=O)ccc1C(=O)NN1C(=O)/C(=C/c2ccco2)N=C1c1ccccc1 class_name="0 (no)"
molecule=CCN(CC)C(=S)Nc1ccc(-c2cc3ccc(O)cc3oc2=O)cc1 class_name="0 (no)"
molecule="Cc1cn2c(=O)c3ncn(C4OC(CO)C(O)C4O)c3n(C)c2n1 (stereo unspecified)" class_name="0 (no)"
molecule="CC(=O)N/C(=C\\c1ccc(/C=C(\\NC(C)=O)C2=NC3C(=O)c4ccccc4C(=O)C3N2)cc1)C1=NC2C(=O)c3ccccc3C(=O)C2N1 (stereo unspecified)" class_name="0 (no)"
molecule=c1ccc(CNn2nnc3ccccc32)cc1 class_name="0 (no)"
molecule=COC(=O)c1sc2c(c1C(=O)OC)/C(=N/c1ccc(OC)cc1)S/C2=N\c1ccc(OC)cc1 class_name="1 (yes)"
molecule=CC(C)(C)OC(=O)NCC(c1c[nH]c2ccccc12)c1c[nH]c2ccccc12 class_name="0 (no)"
